# IC50 values compiled below
- target-under-test: CYP3A4 (Homo sapiens, UniProt P08684)
- Sequence (P08684 whole entry): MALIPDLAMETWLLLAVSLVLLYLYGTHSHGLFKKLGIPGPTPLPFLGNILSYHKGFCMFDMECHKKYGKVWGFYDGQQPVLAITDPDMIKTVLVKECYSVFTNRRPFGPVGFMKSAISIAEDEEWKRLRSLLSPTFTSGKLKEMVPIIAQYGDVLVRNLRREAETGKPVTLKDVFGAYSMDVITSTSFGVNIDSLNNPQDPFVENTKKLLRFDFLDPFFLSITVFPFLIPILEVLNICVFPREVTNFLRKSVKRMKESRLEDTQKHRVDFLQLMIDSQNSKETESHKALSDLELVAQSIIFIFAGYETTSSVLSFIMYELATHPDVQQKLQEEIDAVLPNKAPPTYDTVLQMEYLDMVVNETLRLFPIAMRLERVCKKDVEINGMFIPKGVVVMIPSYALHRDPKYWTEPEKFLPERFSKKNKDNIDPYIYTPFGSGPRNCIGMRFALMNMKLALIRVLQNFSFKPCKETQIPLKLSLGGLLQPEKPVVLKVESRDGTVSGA
- test: Determination of CYP3A4 inhibitory activity (human liver microsome, Luciferin-IPA)
- recorded-conditions: CYP3A4 IC50 (nM), 37° C. 11 minutes
- Method: The standard final Compound concentrations were 37, 111, 333, 1000, and 3000 nM. 12.5 μL of the Compound dilutions were transferred to a white 96-well plate. […] 25 μL of the buffer was added to each well. The plates were incubated at 37° C. for 11 minutes. 50 μL of luciferin detection reagent (Promega V9002) was added and the plates were incubated at room temperature for 5 minutes. The plate was read with a luminometer. […]

Use the examples below as a reference point.
COc1cc(NC(=O)c2cc(=O)c3ccccc3o2)c(C(=O)Nc2ccc(CCN(C)Cc3cncn3C)cc2)cc1OC [Compound 86]    250 to 500 nM
COc1cncc(CN(CCc2ccc(NC(=O)c3cc(OC)c(OC)cc3NC(=O)c3cc(=O)c4ccccc4o3)cc2)Cc2ccc3c(c2)c(C)nn3C)c1 [Compound 63]    500 to 1000 nM
CN(CCc1ccc(NC(=O)c2ccc(C(=O)OCc3cncs3)cc2NC(=O)c2cc(=O)c3ccccc3o2)cc1)Cc1ccc2c(cnn2C)c1 [Compound 85]    250 to 500 nM
COc1cc(NC(=O)c2cc(=O)c3ccccc3o2)c(C(=O)Nc2ccc(CCN(Cc3cccnc3)Cc3ccc(C)c4ncccc34)cc2)cc1OC [Compound 250]    100 to 250 nM
COc1cc(NC(=O)c2cc(=O)c3ccccc3o2)c(C(=O)Nc2ccc(CCN(Cc3ccc(-n4cncn4)cc3)Cc3ccc4c(cnn4C)c3)cc2)cc1OC [Compound 142]    > 1000 nM

Next up:
[in] Quickly give me recorded IC50 for COc1cc(NC(=O)c2cnc3ccccc3c2)c(C(=O)Nc2ccc(CCN(Cc3cccc(-n4ccnc4)c3)Cc3ccc4c(c3)c(C)nn4C)cc2)cc1OC [Compound 179]
[out] 250 to 500 nM

* * *

# IC50 values compiled below
- target-under-test: CYP3A4 (Homo sapiens)
- test: Determination of CYP3A4 inhibitory activity (human liver microsome, Luciferin-IPA)
- recorded-conditions: CYP3A4 IC50 (nM), 37° C. 11 minutes
- Description: The standard final Compound concentrations were 37, 111, 333, 1000, and 3000 nM. 12.5 μL of the Compound dilutions were transferred to a white 96-well plate. […] 25 μL of the buffer was added to each well. The plates were incubated at 37° C. for 11 minutes. 50 μL of luciferin detection reagent (Promega V9002) was added and the plates were incubated at room temperature for 5 minutes. The plate was read with a luminometer. […]

COc1cc2c(cc1OC)CN(CCc1ccc(NC(=O)c3ccc(C(=O)OCc4cccnc4)cc3NC(=O)c3cc(=O)c4ccccc4o3)cc1)CC2 [Compound 80]    500 to 1000 nM
CCN(CCc1ccc(NC(=O)c2cc(OC)c(OC)cc2NC(=O)c2cc(=O)c3ccccc3o2)cc1)Cc1ccc2c(cnn2C)c1 [Compound 106]    > 1000 nM
COc1cc(NC(=O)c2cc(=O)c3cc(C)ccc3o2)c(C(=O)Nc2ccc(CCN(Cc3cncc(O)c3)Cc3ccc4c(cnn4C)c3)cc2)cc1OC [Compound 59]    100 to 250 nM
COc1cc(NC(=O)c2cc(=O)c3ccccc3o2)c(C(=O)Nc2ccc(CCN(C)Cc3cccc(-c4nc(C)no4)c3)cc2)cc1OC [Compound 157]    > 1000 nM
COc1cc(NC(=O)c2cc(=O)c3ccccc3o2)c(C(=O)Nc2ccc(CCN(Cc3cncn3C)Cc3cncn3C)cc2)cc1OC [Compound 18]    < 100 nM

Next up:
[in] Quickly give me recorded IC50 for COc1cc(NC(=O)c2cc(=O)c3ccccc3o2)c(C(=O)Nc2ccc(CCN(Cc3cncc(OCCN(C)C)c3)Cc3ccc4c(cnn4C)c3)cc2)cc1OC [Compound 244]
[out] > 1000 nM
